src = paper PMC9911399

- TGT: T1, RBFOX1 RRM RbFoxmut (Fox-RRM*) (Homo sapiens, UniProt Q9NWB1 109-208, R118D;E147R;N151S;E152T)
- T1 sequence: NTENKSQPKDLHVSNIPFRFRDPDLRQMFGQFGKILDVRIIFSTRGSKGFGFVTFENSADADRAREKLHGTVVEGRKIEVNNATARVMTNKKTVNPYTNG
- PROCEDURE_DETAILS: EMSA; HiTS-Eq, 1 nM pool, 10 min; buffer printed only for the single-RNA assays: 10 mM Tris pH 7.5, 150 mM NaCl, 3.4 mM EDTA, 0.001% NP-40, 30 C
- COND: tags: His6 N-terminal (pET28a); label: 5' 32P
Over roughly 16,000 sequences, “ka relative to ugcaugu” has its median near 0.096; the highest 2% begin near 0.35. Only a selection was taken, and the highest values are over-represented in it overall.
MEASURE_NAME: binding signal

GET /values?readout=binding signal&item= UCGAGAA (DNA:RNA) RNA: GGGAGACCGGAAUUCAGAUUGUCCUCGAGAAUUAAAUCCCGUCGUAGCCACCA DNA 1: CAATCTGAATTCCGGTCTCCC DNA 2: TGGTGGCTACGACGGGATT
0.116 KA relative to UGCAUGU

GET /values?readout=binding signal&item= CCAUGGC (DNA:RNA) RNA: GGGAGACCGGAAUUCAGAUUGUCCCCAUGGCUUAAAUCCCGUCGUAGCCACCA DNA 1: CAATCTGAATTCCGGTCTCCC DNA 2: TGGTGGCTACGACGGGATT
0.0829 KA relative to UGCAUGU
